TARGET: UniProtKB P15121
REPORTED_METRIC: IC50 (nM)
Note: unit nM is implicit; provide only the numeric part.

Report IC50 for O=C(O)COc1cc(Cl)ccc1C(=O)NCc1ccc(I)cc1F tested on UniProtKB P15121. 190

Report IC50 for O=C(O)COc1cc(Cl)ccc1C(=O)NCc1ccc(I)cc1 tested on UniProtKB P15121. 1900

Report IC50 for O=C(O)COc1cc(Cl)ccc1C(=O)NCc1c(F)cc(Br)cc1F tested on UniProtKB P15121. 1190
